test: Time to Cmax in apoE deficient C57BL/6J mouse at 20 ug, ip; type: ADME, organism-based; conditions: in vivo
The entries below come with measured Tmax values attached.
recorded_endpoint: Tmax (min)

1. CC(C)C[C@H](NC(=O)[C@H](Cc1c[nH]c2ccccc12)NC(=O)[C@H](CC(=O)O)NC([14CH3])=O)C(=O)N[C@@H](CCCCN)C(=O)N[C@@H](C)C(=O)N[C@@H](Cc1ccccc1)C(=O)N[C@@H](Cc1ccc(O)cc1)C(=O)N[C@@H](CC(=O)O)C(=O)N[C@@H](CCCCN)C(=O)N[C@H](C(=O)N[C@@H](C)C(=O)N[C@@H](CCC(=O)O)C(=O)N[C@@H](CCCCN)C(=O)N[C@@H](Cc1ccccc1)C(=O)N[C@@H](CCCCN)C(=O)N[C@@H](CCC(=O)O)C(=O)N[C@@H](C)C(=O)N[C@@H](Cc1ccccc1)C(N)=O)C(C)C = 28.8
2. CC(C)C[C@H](NC(=O)[C@H](Cc1ccccc1)NC(=O)[C@H](CCC(=O)O)NC(=O)[C@H](CCCCN)NC(=O)[C@H](Cc1ccccc1)NC(=O)[C@H](C)NC(=O)[C@H](CCC(=O)O)NC(=O)[C@H](C)NC(=O)[C@H](Cc1ccccc1)NC(=O)[C@H](CCCCN)NC(=O)[C@H](CC(=O)O)NC(=O)[C@H](Cc1ccc(O)cc1)NC(=O)[C@@H](NC(=O)[C@H](C)NC(=O)[C@H](CCCCN)NC(=O)[C@H](Cc1c[nH]c2ccccc12)NC(=O)[C@H](CCCCN)NC(=O)[C@H](CC(=O)O)NC([14CH3])=O)C(C)C)C(N)=O = 16.8
